# assayed system: human Yes1 enzyme (Homo sapiens)
# Construct: made in house
# Sequence (P07947 whole entry): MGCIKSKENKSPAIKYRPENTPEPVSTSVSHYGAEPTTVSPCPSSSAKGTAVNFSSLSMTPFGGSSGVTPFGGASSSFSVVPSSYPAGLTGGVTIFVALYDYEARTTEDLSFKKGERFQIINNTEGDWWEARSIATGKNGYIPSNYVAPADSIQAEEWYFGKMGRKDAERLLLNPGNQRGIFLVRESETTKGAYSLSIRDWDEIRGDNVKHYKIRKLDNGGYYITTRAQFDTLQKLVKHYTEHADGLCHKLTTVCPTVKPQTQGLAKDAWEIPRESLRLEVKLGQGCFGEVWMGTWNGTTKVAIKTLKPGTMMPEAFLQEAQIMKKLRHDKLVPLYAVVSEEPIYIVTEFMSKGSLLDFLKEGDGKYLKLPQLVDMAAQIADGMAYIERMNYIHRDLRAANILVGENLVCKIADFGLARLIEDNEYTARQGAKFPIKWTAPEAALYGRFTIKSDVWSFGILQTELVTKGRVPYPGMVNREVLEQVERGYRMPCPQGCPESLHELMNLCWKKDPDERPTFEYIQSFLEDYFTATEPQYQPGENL
# assay protocol: Yes1 enzyme inhibitory activity (time-resolved fluorometry, biotinylated peptide phosphorylation)
# Assay type: biochemical
# condition notes: read-out: YES_IC50
pIC50: −log10 of the molar value.
readout label: pIC50

Look over these answered cases.
structure string	pIC50
CC(C)N1CCC(c2cc3[nH]c(C(=O)c4cnn(-c5ccc(Oc6ccccc6F)cc5)c4N)cc3cc2F)CC1	8.96
Cc1cc(Oc2cccc(F)c2)ncc1-n1ncc(C(=O)c2cc3cc(F)c(NS(=O)(=O)CCCF)cc3[nH]2)c1N	8.47
Cc1cc(Oc2c(F)cccc2F)ncc1-n1ncc(C(=O)c2cc3cc(F)c(N4C(=O)NC5(CCC5)C4=O)cc3[nH]2)c1N	8.46
Cc1cc(Oc2ccccc2F)ccc1-n1ncc(C(=O)c2cc3cc(OCC(F)F)c(N4C(=O)N[C@@H](Cc5ccc(O)cc5)C4=O)cc3[nH]2)c1N	8.42

P: Cc1cc(-n2ncc(C(=O)c3cc4cc(OC5CCN(C(C)C)CC5)c(N5C(=O)N[C@@H](C)C5=O)cc4[nH]3)c2N)ccc1Oc1ccccc1F
Q: Cc1cc(Oc2cccc(F)c2)ccc1-n1ncc(C(=O)c2cc3cc(F)c(C4CCN(C(C)C)CC4)cc3[nH]2)c1N
Problem: Lab log: flag the item ( P or Q ) with the smaller pIC50 figure. Write the label of whichever entry you select.
Solution: Q
